Target: human CB2 receptors (Homo sapiens (Human), UniProt P34972)
Sequence (P34972 whole entry): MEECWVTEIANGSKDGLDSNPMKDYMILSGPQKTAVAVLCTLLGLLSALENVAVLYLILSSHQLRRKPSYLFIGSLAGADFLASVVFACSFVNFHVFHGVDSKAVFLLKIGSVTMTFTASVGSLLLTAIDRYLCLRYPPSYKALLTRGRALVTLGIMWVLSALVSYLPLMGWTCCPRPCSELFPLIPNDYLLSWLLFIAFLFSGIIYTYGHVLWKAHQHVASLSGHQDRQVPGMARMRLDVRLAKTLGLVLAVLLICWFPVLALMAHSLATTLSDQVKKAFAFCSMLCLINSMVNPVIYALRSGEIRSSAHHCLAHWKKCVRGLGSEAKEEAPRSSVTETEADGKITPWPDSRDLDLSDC
Assay: functional cAMP assay, CHO cells expressing human CB2 receptors
pEC50: −log10 of the molar value.
measured property: pEC50

molecule: CC(C)(C)N(CC(=O)O)C(=O)c1ccc(N2CC(F)(F)C2)c(OCC2CC2)n1
target entity: human CB2 receptors (Homo sapiens (Human), UniProt P34972)
number: 6.47
//
molecule: CN(C=O)C(=O)c1ccc(N2CC(F)(F)C2)c(OCC2CC2)n1
target entity: human CB2 receptors (Homo sapiens (Human), UniProt P34972)
number: 6.10
//
molecule: CCN(C(=O)c1ccc(N2CC(F)(F)C2)c(OCC2CC2)n1)C(C)(C)C
target entity: human CB2 receptors (Homo sapiens (Human), UniProt P34972)
number: 9.22
//
molecule: CN(C(=O)c1ccc(N2CC(F)(F)C2)c(OCC2CC2)n1)C(C)(C)C
target entity: human CB2 receptors (Homo sapiens (Human), UniProt P34972)
number: 8.34
//
molecule: NC(=O)[C@@H]1C[C@H](O)CN1C(=O)c1ccc(N2CC(F)(F)C2)c(OCC2CC2)n1
target entity: human CB2 receptors (Homo sapiens (Human), UniProt P34972)
number: 6.29
//
molecule: CC1(O)C[C@@H](C(N)=O)N(C(=O)c2ccc(N3CC(F)(F)C3)c(OCC3CC3)n2)C1 (stereo partly drawn)
target entity: human CB2 receptors (Homo sapiens (Human), UniProt P34972)
number: 7.52

###

Target: human CB2 receptors (Homo sapiens (Human))
Test: functional cAMP assay, CHO cells expressing human CB2 receptors
measured property: log10 EC50 (log10 of the value in nM)

molecule: O=C(c1ccc(N2CC(F)(F)C2)c(OCC2CC2)n1)N1CC2(CCCO2)C1 [Example 99]
target entity: human CB2 receptors (Homo sapiens (Human))
measured property: log10 EC50
number: 2.48
//
molecule: CC(C)(C)N(Cc1ccccc1)C(=O)c1ccc(N2CC(F)(F)C2)c(OCC2CC2)n1 [Example 25]
target entity: human CB2 receptors (Homo sapiens (Human))
measured property: log10 EC50
number: 1.57
//
molecule: O=C(c1ccc(N2CC(F)(F)C2)c(OCC2CC2)n1)N(Cc1ccccc1)C1(C(F)(F)F)CC1 [Example 22]
target entity: human CB2 receptors (Homo sapiens (Human))
measured property: log10 EC50
number: 1.40
//
molecule: Cc1nc([C@H](CC2CC2)N(C)C(=O)c2ccc(N3CC(F)(F)C3)c(OCC3CC3)n2)no1 [Example 32]
target entity: human CB2 receptors (Homo sapiens (Human))
measured property: log10 EC50
number: 2.41
//
molecule: NC(=O)[C@H]1CS(=O)(=O)CN1C(=O)c1ccc(C2CC2)c(OCC2CC2)n1 [Example 117]
target entity: human CB2 receptors (Homo sapiens (Human))
measured property: log10 EC50
number: 2.69
//
molecule: COC1CN(c2ccc(C(=O)N3CS(=O)(=O)CC3C(N)=O)nc2OCC2CC2)C1 (stereo not drawn) [Example 128]
target entity: human CB2 receptors (Homo sapiens (Human))
measured property: log10 EC50
number: 1.48
//
molecule: O=C(c1ccc(N2CC(F)(F)C2)c(OCC2CC2)n1)N1CCCC12CCC2 [Example 101]
target entity: human CB2 receptors (Homo sapiens (Human))
measured property: log10 EC50
number: 0.69
//
molecule: CC(C)CS(=O)(=O)c1nc(C(=O)N2COCC2(C)C)ccc1C1CC1 [Example 31]
target entity: human CB2 receptors (Homo sapiens (Human))
measured property: log10 EC50
number: 1.91
//
molecule: CC(C)CS(=O)(=O)c1nc(C(=O)N(C)C(C)(C)C)ccc1C1CC1 [Example 6]
target entity: human CB2 receptors (Homo sapiens (Human))
measured property: log10 EC50
number: 2.03
//
molecule: CCC1(CC)C(=O)NCCN1C(=O)c1ccc(N2CC(F)(F)C2)c(OCC2CC2)n1 [Example 29]
target entity: human CB2 receptors (Homo sapiens (Human))
measured property: log10 EC50
number: 2.62
//
molecule: O=C(c1ccc(N2CC(F)(F)C2)c(OCC2CC2)n1)N1C[C@H]2CC[C@@H](C1)O2 [Example 85]
target entity: human CB2 receptors (Homo sapiens (Human))
measured property: log10 EC50
number: 1.93
//
molecule: CN(C(=O)c1ccc(C2CC2)c(OCC2CC2)n1)C(C)(C)C [Example 3]
target entity: human CB2 receptors (Homo sapiens (Human))
measured property: log10 EC50
number: 0.86
//
molecule: O=C(c1ccc(N2CC(F)(F)C2)c(OCC2CC2)n1)N1CC2(CC(O)CO2)C1 (stereo not drawn) [Example 83]
target entity: human CB2 receptors (Homo sapiens (Human))
measured property: log10 EC50
number: 2.88
//
molecule: NC(=O)[C@H]1N(C(=O)c2ccc(N3CC(F)(F)C3)c(OCC3CC3)n2)CCC12CC2 [Example 152]
target entity: human CB2 receptors (Homo sapiens (Human))
measured property: log10 EC50
number: 2.53
//
molecule: NC(=O)C1CCCCN1C(=O)c1ccc(C2CC2)c(OCC2CC2)n1 (stereo not drawn) [Example 88]
target entity: human CB2 receptors (Homo sapiens (Human))
measured property: log10 EC50
number: 2.26
